biological target: T1, RSV F subtype B, furin-cleaved ectodomain stabilized in the prefusion conformation (DS-Cav1) (Respiratory syncytial virus subtype B); experiment: BLI, IgG on AHQ sensor, 100 nM antigen
T1 construct: extracellular domain; Trimeric soluble antigen; also called Prefusion subtype B
pKd: −log10 of the molar value.
Please note: condition met applies when pKd is 9 or greater, and condition not met applies otherwise.

[in] Assess whether reported pKd for ADI-18922 (antibody, V domains shown, full-length IgG from yeast; also called Antibody Number 276; Ab # 276) VH: QVQLQESGPGRVKPSETLSLTCSVADGSISSGHYYWGWVRQPPGKGLEWIATIHDSGATYYNPSLQSRVTISVDTSKNQFSLKVNSVTAADTAVYYCASRRGSGWFFDSWGQGTLVTVSS VL: DIVLTQSPATLSVSPGERVTLSCRASHSVNYNLAWYQQKPGQAPRLLIYGSSTRATGLPARFSGSGSGTEFTLTISSLQSEDFAIYYCQQYNNWPPGGTFGQGTKVEIK sits at 9 or higher.
[out] condition not met

[in] Assess whether reported pKd for ADI-18903 (antibody, V domains shown, full-length IgG from yeast) VH: EVQLVESGGEVKKPGASVKVSCRASGYTFRNYGLTWVRQAPGQGLEWMGWISAYNGNTNYAQKFQGRVTLTTDTSTSTAYMELRSLRSDDTAVYFCARDVPGHGAAFMDVWGTGTTVTVSS VL: ETTLTQSPLSLPVTLGQPASISCRSSQSLEASDTNIYLSWFQQRPGQSPRRLIYKISNRDSGVPDRFSGSGSGTHFTLRISRVEADDVAVYYCMQGTHWPPAFGQGTKLEIK sits at 9 or higher.
[out] condition met

[in] Assess whether reported pKd for ADI-18975 (antibody, V domains shown, full-length IgG from yeast; also called Antibody Number 323; Ab # 323) VH: QVQLVQSGAEVKKPGASVKVSCKASGYTFVHYGISWVRQAPGQGLEWMGWISAYNGNTNSALKFQDRVTMTTDPSTSTAYMELRSLRSDDTAIYYCARDSGCCSGSTSDVWGKGTTVTVSS VL: DIVMTQSPLSSPVTLGQPASISCRSSQSLVHSDGNTYLSWLHQRPGQPPRLLIYKISHRFSGVPDRFTGSGAGTDFTLKISRVEAEDVGVYYCMQATEFPPMYTFGQGTKVEIK sits at 9 or higher.
[out] condition met

[in] Assess whether reported pKd for ADI-18930 (antibody, V domains shown, full-length IgG from yeast) VH: QVQLVQSGAEVKKPGSSVKVSCKASGGTFSGYHISWVRQAPGQGLEWMGGIIHLFGTVNYAPKFQGRVTITADASTGTAYMELNSLMSEDTAVYYCARDAYEVWTGSYLPPFDYWGQGTLVTVSS VL: EIVLTQSPGTLSLSPGERVTLSCRASQTVTSSYLAWYQQKPGQAPRLLIYGAFTRATDIPDRFSGSGSGTDFTLTISRLEPEDSAVYYCQQYGSSFLTFGGGTKVDIK sits at 9 or higher.
[out] condition met
